# test_name: XTT toxicity control, uninfected culture, CEM-V
# Format: cell-based
# experimental_setup: human, cem-v cells, 1.89 × 10^-4 Molar, read-out: Uninfected culture response
measurement_label: viability at 189 µM (%)
The figure you give is taken to be in %; do not add the unit.

Req: Quick one: viability at 189 µM for O=[N+]([O-])c1ccccc1S(=O)(=O)c1ccccc1 [Compound 1, 1-Nitro-2-(phenylsulfonyl)benzene] ?
Resp: 86.7

----------
# test_name: Dye conversion (MTT formazan) assay of drug-induced cytotoxicity
# Format: cell-based
# experimental_setup: mouse, sc-1 cells; 1 × 10^-4 M; read-out: % Reduction
# maps each entry to its cytotoxicity at 72 h, 100 µM
The answer consists of two parts: a number and, after it, its unit.

compound | cytotoxicity at 72 h, 100 µM
O=[N+]([O-])c1ccccc1S(=O)(=O)c1ccccc1 [Compound 1, 1-Nitro-2-(phenylsulfonyl)benzene] | 15%

Req: Quick one: cytotoxicity at 72 h, 100 µM for Cc1ccc(S(=O)(=O)c2ccccc2[N+](=O)[O-])cc1 [Compound 2] ?
Resp: 13%

----------
# test_name: XTT toxicity control, uninfected culture, CEM-V
# Type: cell-based
# experimental_setup: human, cem-v cells, 1.89 × 10^-6 Molar, read-out: Uninfected culture response
measurement_label: viability at 1.89 µM (%)
The figure you give is taken to be in %; do not add the unit.

Req: Quick one: viability at 1.89 µM for O=[N+]([O-])c1ccccc1S(=O)(=O)c1ccccc1 [Compound 1, 1-Nitro-2-(phenylsulfonyl)benzene] ?
Resp: 97.9

----------
# Test system: CEM-Z
# test_name: XTT toxicity control, uninfected culture, CEM-Z
# Type: cell-based
# experimental_setup: uninfected culture (toxicity)
measurement_label: IC50

Req: Entry "O=[N+]([O-])c1ccccc1S(=O)(=O)c1ccccc1" , system CEM-Z: what IC50 was measured?
Resp: > 178 µM

----------
# test_name: XTT toxicity control, uninfected culture, CEM-Z
# Type: cell-based
# experimental_setup: human, cem-z cells, 5.67 × 10^-7 Molar, read-out: Uninfected culture response
measurement_label: viability at 0.567 µM (%)
The figure you give is taken to be in %; do not add the unit.

Req: Quick one: viability at 0.567 µM for "O=[N+]([O-])c1ccccc1S(=O)(=O)c1ccccc1" ?
Resp: 99.6

----------
# test_name: XTT toxicity control, uninfected culture, CEM-V
# Format: cell-based
# experimental_setup: human, cem-v cells, 1.89 × 10^-5 Molar, read-out: Uninfected culture response
measurement_label: viability at 18.9 µM (%)
The figure you give is taken to be in %; do not add the unit.

Req: Quick one: viability at 18.9 µM for "O=[N+]([O-])c1ccccc1S(=O)(=O)c1ccccc1" ?
Resp: 99.9

----------
# test_name: XTT toxicity control, uninfected culture, CEM-Z
# Type: cell-based
# experimental_setup: human, cem-z cells, 5.66 × 10^-6 Molar, read-out: Uninfected culture response
measurement_label: viability at 5.66 µM (%)
The figure you give is taken to be in %; do not add the unit.

Req: Quick one: viability at 5.66 µM for O=[N+]([O-])c1ccccc1S(=O)(=O)c1ccccc1 [Compound 1, 1-Nitro-2-(phenylsulfonyl)benzene] ?
Resp: 98.7

----------
# test_name: XTT toxicity control, uninfected, CEM-IW
# Format: cell-based
# experimental_setup: human, cem-iw cells, 1.45 × 10^-6 Molar, read-out: Uninfected response
# Protocol: Another assay for testing the efficacy of the compounds is the procedure* used in the National Cancer Institute's test for agents active against Human Immunodeficiency Virus (HIV). It is designed to detect agents acting at any stage of the virus reproductive cycle. […] 4. Individual wells are analyzed spectrophotometrically to quantitate formazan production, and in addition are viewed microscopically for detection of viable cells and confirmation of protective activity. […]
measurement_label: viability at 1.45 µM (%)
The figure you give is taken to be in %; do not add the unit.

Req: Quick one: viability at 1.45 µM for "O=[N+]([O-])c1ccccc1S(=O)(=O)c1ccccc1[N+](=O)[O-]" ?
Resp: 87.1

----------
# maps each entry to its cytotoxicity at 72 h, 10 µM
# test_name: Dye conversion (MTT formazan) assay of drug-induced cytotoxicity
# Format: cell-based
# experimental_setup: mouse, sc-1 cells; 1 × 10^-5 M; read-out: % Reduction
The figure you give is taken to be in %; do not add the unit.

smiles_entry | measurement_label | unit_annotation | value
O=[N+]([O-])c1ccccc1S(=O)(=O)c1ccccc1 | cytotoxicity at 72 h, 10 µM | % | 3

Please look at the following molecule next.
Req: Quick one: cytotoxicity at 72 h, 10 µM for "Cc1ccc(S(=O)(=O)c2ccccc2[N+](=O)[O-])cc1" ?
Resp: 8

----------
# test_name: XTT toxicity control, uninfected culture, CEM-V
# Assay type: cell-based
# experimental_setup: human, cem-v cells, 5.99 × 10^-6 Molar, read-out: Uninfected culture response
measurement_label: viability at 5.99 µM (%)
The figure you give is taken to be in %; do not add the unit.

Req: Quick one: viability at 5.99 µM for "O=[N+]([O-])c1ccccc1S(=O)(=O)c1ccccc1" ?
Resp: 111

----------
# test_name: XTT toxicity control, uninfected culture, CEM-Z
# Format: cell-based
# experimental_setup: human, cem-z cells, 5.68 × 10^-8 Molar, read-out: Uninfected culture response
measurement_label: viability at 0.0568 µM (%)
The figure you give is taken to be in %; do not add the unit.

Req: Quick one: viability at 0.0568 µM for "O=[N+]([O-])c1ccccc1S(=O)(=O)c1ccccc1" ?
Resp: 101

----------
# maps each entry to its cytotoxicity at 72 h, 1000 µM
# test_name: Dye conversion (MTT formazan) assay of drug-induced cytotoxicity
# Type: cell-based
# experimental_setup: mouse, sc-1 cells; 1 × 10^-3 M; read-out: % Reduction
The figure you give is taken to be in %; do not add the unit.

smiles_entry | value
O=[N+]([O-])c1ccccc1S(=O)(=O)c1ccccc1 | 45

Req: Quick one: cytotoxicity at 72 h, 1000 µM for "Cc1ccc(S(=O)(=O)c2ccccc2[N+](=O)[O-])cc1" ?
Resp: 31

----------
# test_name: XTT toxicity control, uninfected culture, CEM-Z
# Format: cell-based
# experimental_setup: human, cem-z cells, 1.79 × 10^-7 Molar, read-out: Uninfected culture response
measurement_label: viability at 0.179 µM (%)
The figure you give is taken to be in %; do not add the unit.

Req: Quick one: viability at 0.179 µM for O=[N+]([O-])c1ccccc1S(=O)(=O)c1ccccc1 [Compound 1, 1-Nitro-2-(phenylsulfonyl)benzene] ?
Resp: 101

----------
# test_name: Dye conversion (MTT formazan) assay of drug-induced cytotoxicity
# Format: cell-based
# experimental_setup: mouse, sc-1 cells; 1 × 10^-6 M; read-out: % Reduction
# maps each entry to its cytotoxicity at 72 h, 1 µM
The figure you give is taken to be in %; do not add the unit.

molecule | measurement_label | value
Cc1ccc(S(=O)(=O)c2ccccc2[N+](=O)[O-])cc1 [Compound 2] | cytotoxicity at 72 h, 1 µM | 8

Please look at the following molecule next.
Req: Quick one: cytotoxicity at 72 h, 1 µM for O=[N+]([O-])c1ccccc1S(=O)(=O)c1ccccc1 [Compound 1, 1-Nitro-2-(phenylsulfonyl)benzene] ?
Resp: 2

----------
# test_name: Dye conversion (MTT formazan) assay of drug-induced cytotoxicity
# Type: cell-based
# experimental_setup: mouse, sc-1 cells; 1 × 10^-8 M; read-out: % of Control
measurement_label: viability at 72 h, 0.01 µM
The answer consists of two parts: a number and, after it, its unit.

smiles_entry | viability at 72 h, 0.01 µM
O=[N+]([O-])c1ccccc1S(=O)(=O)c1ccccc1 | 99%

Please look at the following molecule next.
Req: Quick one: viability at 72 h, 0.01 µM for "Cc1ccc(S(=O)(=O)c2ccccc2[N+](=O)[O-])cc1" ?
Resp: 91%

----------
# test_name: XTT toxicity control, uninfected, CEM-IW
# Format: cell-based
# experimental_setup: human, cem-iw cells, 4.59 × 10^-6 Molar, read-out: Uninfected response
measurement_label: viability at 4.59 µM

Req: Quick one: viability at 4.59 µM for "O=[N+]([O-])c1ccccc1S(=O)(=O)c1ccccc1[N+](=O)[O-]" ?
Resp: 90%

----------
# test_name: XTT toxicity control, uninfected, CEM-IW
# Type: cell-based
# experimental_setup: human, cem-iw cells, 1.45 × 10^-5 Molar, read-out: Uninfected response
measurement_label: viability at 14.5 µM (%)
The figure you give is taken to be in %; do not add the unit.

Req: Quick one: viability at 14.5 µM for "O=[N+]([O-])c1ccccc1S(=O)(=O)c1ccccc1[N+](=O)[O-]" ?
Resp: 92.5

----------
# test_name: XTT toxicity control, uninfected culture, CEM-Z
# Format: cell-based
# experimental_setup: human, cem-z cells, 5.65 × 10^-5 Molar, read-out: Uninfected culture response
measurement_label: viability at 56.5 µM (%)
The figure you give is taken to be in %; do not add the unit.

Req: Quick one: viability at 56.5 µM for "O=[N+]([O-])c1ccccc1S(=O)(=O)c1ccccc1" ?
Resp: 103
